Measured pIC50 values are reported for all entries that follow.
- Test system: HCT-15
- assay_notes: Cytotoxicity against human HCT15 cells measured after 2 days by MTT assay
- Format: functional, cell-based
- condition_notes: HCT-15, 48 h
pIC50: −log10 of the molar value.
endpoint_name: pIC50

• Cc1ccc2nc(-c3ccccc3C(F)(F)F)[nH]c(=O)c2c1 = < 4.30
• Cc1ccc2nc(-c3cccc(F)c3)[nH]c(=O)c2c1 = < 4.30
• Cc1ccc2nc(-c3ccccc3F)[nH]c(=O)c2c1 = < 4.30
• Cc1ccc2nc(-c3ccccc3N(C)C)[nH]c(=O)c2c1 = < 4.30
• Cc1ccc2c(=O)[nH]c(-c3cccc(OC(F)(F)F)c3)nc2c1 = < 4.30
• O=c1[nH]c(-c2cccc3ccccc23)nc2ccc(N3CCOCC3)cc12 = < 4.30
• Cc1ccc2c(=O)[nH]c(-c3cccc(C(F)(F)F)c3)nc2c1 = < 4.30
• Cc1ccc2nc(-c3cccc4ccccc34)[nH]c(=O)c2c1 = < 4.30
• Cc1ccc2nc(-c3cccc(C(F)(F)F)c3)[nH]c(=O)c2c1 = < 4.30
• Cc1ccc2nc(-c3cccc(OC(F)(F)F)c3)[nH]c(=O)c2c1 = < 4.30
• Cc1cccc(-c2nc3ccc(C)cc3c(=O)[nH]2)c1 = < 4.30

* * *

- target_under_test: DNA topoisomerase 1 (Homo sapiens)
- Sequence (whole entry): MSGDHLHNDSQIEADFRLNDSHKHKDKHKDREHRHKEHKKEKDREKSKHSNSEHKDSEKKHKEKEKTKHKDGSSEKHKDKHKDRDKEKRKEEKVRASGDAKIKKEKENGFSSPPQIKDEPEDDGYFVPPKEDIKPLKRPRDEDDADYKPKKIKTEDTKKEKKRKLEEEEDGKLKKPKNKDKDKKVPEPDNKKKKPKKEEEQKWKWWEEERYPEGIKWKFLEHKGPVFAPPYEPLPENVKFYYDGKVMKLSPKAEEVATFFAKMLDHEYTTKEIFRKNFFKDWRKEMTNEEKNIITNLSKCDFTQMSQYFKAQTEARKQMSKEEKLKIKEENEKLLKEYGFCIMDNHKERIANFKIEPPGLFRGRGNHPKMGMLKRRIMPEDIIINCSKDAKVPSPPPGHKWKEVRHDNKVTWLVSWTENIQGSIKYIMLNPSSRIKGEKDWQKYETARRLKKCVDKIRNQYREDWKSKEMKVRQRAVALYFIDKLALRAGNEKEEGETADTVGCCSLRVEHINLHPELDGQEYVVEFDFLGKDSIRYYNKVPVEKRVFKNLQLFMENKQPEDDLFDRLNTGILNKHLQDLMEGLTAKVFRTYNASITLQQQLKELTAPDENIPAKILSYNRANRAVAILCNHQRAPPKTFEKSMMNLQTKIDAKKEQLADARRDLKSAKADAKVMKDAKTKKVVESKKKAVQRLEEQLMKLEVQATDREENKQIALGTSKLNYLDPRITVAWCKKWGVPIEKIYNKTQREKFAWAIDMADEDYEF
- assay_notes: Potency index, ratio of compound activity to CPT activity for inhibition of recombinant human topoisomerase 1 at 100 uM
hey, just use MET if measured Ratio is less than 1, otherwise NOT MET

- Cc1ccc2nc(-c3ccccc3N(C)C)[nH]c(=O)c2c1: NOT MET
- CN(C)c1ccc2nc(-c3cccc4ccccc34)[nH]c(=O)c2c1: NOT MET
- Cc1cccc(-c2nc3ccc(C)cc3c(=O)[nH]2)c1: NOT MET
- COc1cccc(-c2nc3ccc(N4CCCCC4)cc3c(=O)[nH]2)c1OC: MET
- Cc1ccc2c(=O)[nH]c(-c3ccccc3C)nc2c1: NOT MET
- Cc1ccc2nc(-c3ccccc3OC(F)(F)F)[nH]c(=O)c2c1: MET
- CCN(CC)c1ccc2nc(-c3cccc4ccccc34)[nH]c(=O)c2c1: NOT MET
